Sourced from PubChem BioAssay (EPA / NIEHS)

- experiment_notes: APR_HepG2_MitoMembPot_72hr: Apredica 72-hour HepG2 Assay for Mitochondrial Membrane Potential (AID 2282917)
- stated_conditions: imaging, actives raise or lower the signal
The source made the active and inactive calls. Rule for the calls: active = hit-call score of the fitted dose curve at least 0.9, where 1 is the maximum; inactive = score below 0.9.
Labels: t for active, f for inactive

- smiles_entry: "O=C(Nc1ccc(Cl)cc1)Nc1ccc(Cl)c(Cl)c1"
  assigned_category: "t"
- smiles_entry: "CO[C@H]1/C=C/O[C@@]2(C)Oc3c(C)c(O)c4c(O)c(c(/C=N/N5CCN(C)CC5)c(O)c4c3C2=O)NC(=O)/C(C)=C\\C=C\\[C@H](C)[C@H](O)[C@@H](C)[C@@H](O)[C@@H](C)[C@H](OC(C)=O)[C@@H]1C"
  assigned_category: "f"
- smiles_entry: "O=C1c2ccccc2C(=O)N1CCc1noc(-c2ccc(CN3CCCCCC3)s2)n1"
  assigned_category: "f"
- smiles_entry: "Cc1ccc2oc(CN(Cc3ccccc3)C(=O)Nc3c(F)cc(F)cc3F)c(-c3ccc(Cl)cc3)c2c1"
  assigned_category: "f"
- smiles_entry: "CC(C)(C)c1cc(/C=C2\\SC(N)=NC2=O)cc(C(C)(C)C)c1O"
  assigned_category: "f"
- smiles_entry: "CC[C@@H]1C[C@H](N(Cc2cc(C(F)(F)F)cc(C(F)(F)F)c2)C(C)=O)c2cc(C(F)(F)F)ccc2N1C(=O)OC(C)C"
  assigned_category: "f"
- smiles_entry: "CCN(Cc1cccnc1)C(=O)c1cccc(Cl)c1[C@]1(C)C(=O)N(Cc2ccc(OC)cc2OC)c2ccc(Cl)cc21"
  assigned_category: "f"
- smiles_entry: "Oc1ccccc1"
  assigned_category: "f"
- smiles_entry: "CCCCCc1ccc(N)cc1"
  assigned_category: "f"
- smiles_entry: "c1ccc2n[nH]nc2c1"
  assigned_category: "f"
- smiles_entry: "CCCCCCCCOc1ccc(C(=O)c2ccccc2)c(O)c1"
  assigned_category: "f"
- smiles_entry: "COc1cccc([C@H](O)C2CCN(CCc3ccc(F)cc3)CC2)c1OC"
  assigned_category: "f"
- smiles_entry: "CCCCCCCCCC(=O)O"
  assigned_category: "f"
- smiles_entry: "Clc1ccccc1C(c1ccccc1)(c1ccccc1)n1ccnc1"
  assigned_category: "f"
- smiles_entry: "C[C@]12CC[C@@H]3c4ccc(O)cc4CC[C@H]3[C@@H]1CC[C@H]2O"
  assigned_category: "f"
- smiles_entry: "CCCCCCCCCCCCO"
  assigned_category: "f"
- smiles_entry: "Cc1ncc(CO)c(CO)c1O"
  assigned_category: "f"
- smiles_entry: "NC(=O)c1nc(-c2cccc(-c3cc(F)ccc3OCC(F)(F)C(F)(F)F)c2)n[nH]1"
  assigned_category: "f"
- smiles_entry: "Cc1oc2c(NC(=O)c3c(Cl)cccc3Cl)cccc2c1C(C)(C)O"
  assigned_category: "f"
- smiles_entry: "CCOC(=O)O[C@H](C)OC(=O)c1ccc2c(c1)cc(C(=O)NC1CCN(C(C)C)CC1)n2Cc1cc(-c2ccc(Cl)s2)on1"
  assigned_category: "f"
- smiles_entry: "O=CCCCC=O"
  assigned_category: "f"
- smiles_entry: "c1ccc2ccccc2c1"
  assigned_category: "f"
- smiles_entry: "CCO[Si](CCCNC(N)=O)(OCC)OCC"
  assigned_category: "f"
- smiles_entry: "Cc1cc2c(cc1C(F)(F)F)N(C(=O)Nc1ccc(Oc3cccnc3C)nc1)CC2"
  assigned_category: "f"
- smiles_entry: "O=C(O)Cn1c(=O)n(Cc2ccc(Br)cc2F)c(=O)c2ccc(Cl)cc21"
  assigned_category: "f"
- smiles_entry: "CC(=O)N1CCN(c2ccc(OC[C@H]3CO[C@](Cn4ccnc4)(c4ccc(Cl)cc4Cl)O3)cc2)CC1"
  assigned_category: "f"
- smiles_entry: "CCCCOC(=O)CC(CC(=O)OCCCC)(OC(C)=O)C(=O)OCCCC"
  assigned_category: "f"
- smiles_entry: "C[C@]12CC[C@@H]3c4ccc(O)cc4CC[C@H]3[C@@H]1CCC2=O"
  assigned_category: "f"
- smiles_entry: "CN(C[C@@H](CC[N+]12CCC(C3CCCCC3)(CC1)CC2)c1ccc(Cl)c(Cl)c1)C(=O)c1cc(C(F)(F)F)cc(C(F)(F)F)c1"
  assigned_category: "t"
- smiles_entry: "O=C(O)c1ccccc1-n1cc(C(=O)O)c(=O)c2cc(Nc3c(F)cc(F)cc3Cl)c(Cl)cc21"
  assigned_category: "f"
- smiles_entry: "Cc1ccc(C(C)C)cc1"
  assigned_category: "f"
- smiles_entry: "CCN(Cc1cccc(S(=O)(=O)O)c1)c1ccc(C(=C2C=CC(=[N+](CC)Cc3cccc(S(=O)(=O)O)c3)C=C2)c2ccccc2S(=O)(=O)[O-])cc1"
  assigned_category: "f"
- smiles_entry: "Cc1cc(F)ccc1-c1cc(N2CC[C@@H](O)[C@H]2CO)ncc1N(C)C(=O)C(C)(C)c1cc(C(F)(F)F)cc(C(F)(F)F)c1"
  assigned_category: "f"
- smiles_entry: "CCN(CC)C(=O)c1cc(S(=O)(=O)Cc2ccccc2)c(N2CCC(c3ccccc3)CC2)cc1N(CC)CCN(C)C"
  assigned_category: "t"
- smiles_entry: "CCCCCCCC[Si](OCC)(OCC)OCC"
  assigned_category: "f"
- smiles_entry: "O=C=NCCCCCCN=C=O"
  assigned_category: "f"
- smiles_entry: "O=c1[nH]sc2ccccc12"
  assigned_category: "t"
- smiles_entry: "NCc1cccc(C2CCN(C(=O)c3ccc(C#Cc4ccccc4F)o3)CC2)c1"
  assigned_category: "t"
- smiles_entry: "CC/C(=C(/CC)c1ccc(O)cc1)c1ccc(O)cc1"
  assigned_category: "t"
- smiles_entry: "CC[C@H](NC(=O)c1cc(F)ccc1NS(=O)(=O)c1cccc2cccnc12)c1ccccc1"
  assigned_category: "f"
- smiles_entry: "O=C(O)c1ccccc1C(=O)OCc1ccccc1"
  assigned_category: "f"
